System: Rat
protocol: Test 2: acute toxicity, rat, oral
Format: in vivo, male Wister rats
condition.parameters: 3 g/Kg P.O., fourteenth day
property.label: Acute Toxicity, number of dead animals/number of tested animals

Lookup result for CCn1ccc2nc(N3CCN(c4nc(N)c5cc(OC)c(OC)cc5n4)CC3)ncc2c1=O [Example 1] ; measured Acute Toxicity, number of dead animals/number of tested animals: 0/5

According to the records, this compound COc1cc2nc(N3CCN(C(=O)c4ccco4)CC3)nc(N)c2cc1OC [Prazosin, prazosin, reference compound] displays Acute Toxicity, number of dead animals/number of tested animals of 0/3

Consider CCNc1nc(N2CCN(c3nc(N)c4cc(OC)c(OC)cc4n3)CC2)ncc1C(=O)OC.Cl [Example 2] . Its measured Acute Toxicity, number of dead animals/number of tested animals is 0/5

Entry under test: COc1cc2nc(N3CCN(c4ncc5c(n4)N(C)C(=O)C5)CC3)nc(N)c2cc1OC [Example 29] . Its Acute Toxicity, number of dead animals/number of tested animals was 0/4

Short answer for COc1cc2nc(N3CCN(c4ncc5c(=O)n(C)ccc5n4)CC3)nc(N)c2cc1OC [Example 4] : Acute Toxicity, number of dead animals/number of tested animals was 0/5

The measured Acute Toxicity, number of dead animals/number of tested animals associated with COc1cc2nc(N3CCN(c4ncc5c(n4)CN(C)C5=O)CC3)nc(N)c2cc1OC [Example 24] reads 0/5

----------
Test system: Mouse
protocol: Test 2: acute toxicity, mouse, oral
Type: in vivo, male ddy-mice
condition.parameters: 1 g/Kg P.O., fourteenth day
Assignment: determine reported Acute Toxicity, number of dead animals/number of tested animals for the given molecules.

Mouse Acute Toxicity, number of dead animals/number of tested animals of COC(=O)c1cnc(N2CCN(c3nc(N)c4cc(OC)c(OC)cc4n3)CC2)nc1NC(C)C is 0/5

Sample CCN1Cc2nc(N3CCN(c4nc(N)c5cc(OC)c(OC)cc5n4)CC3)ncc2C1=O , system: Mouse. Its Acute Toxicity, number of dead animals/number of tested animals is 0/5

# lookup: CCN1C(=O)CCCc2nc(N3CCN(c4nc(N)c5cc(OC)c(OC)cc5n4)CC3)ncc21 on Mouse, Acute Toxicity, number of dead animals/number of tested animals = 0/5

Reported Acute Toxicity, number of dead animals/number of tested animals (Mouse) for entry CCN1C(=O)Cc2cnc(N3CCN(c4nc(N)c5cc(OC)c(OC)cc5n4)CC3)nc21 is 0/5

Field Acute Toxicity, number of dead animals/number of tested animals (Mouse), entry CCCC(=O)N1CCCN(c2nc(N)c3cc(OC)c(OC)cc3n2)CC1 [Example E-643, Bunazosin, reference compound] : 0/5

Item COc1cc2nc(N3CCN(c4ncc5c(n4)CN(C(C)C)C5=O)CC3)nc(N)c2cc1OC ; assay system Mouse; Acute Toxicity, number of dead animals/number of tested animals reported as 0/5

// molecule CCNc1nc(N2CCN(c3nc(N)c4cc(OC)c(OC)cc4n3)CC2)ncc1C(=O)OC.Cl , assay Mouse, Acute Toxicity, number of dead animals/number of tested animals value: 0/5

Field Acute Toxicity, number of dead animals/number of tested animals (Mouse), entry COc1cc2nc(N3CCN(c4ncc5c(=O)n(C)ccc5n4)CC3)nc(N)c2cc1OC : 0/5

The recorded Acute Toxicity, number of dead animals/number of tested animals with Mouse for COc1cc2nc(N3CCN(c4ncc5c(n4)N(C(C)C)C(=O)C5)CC3)nc(N)c2cc1OC was 0/5

Summary line: CCNC(=O)c1cnc(N2CCN(c3nc(N)c4cc(OC)c(OC)cc4n3)CC2)nc1NCC , Mouse, reported Acute Toxicity, number of dead animals/number of tested animals = 0/5

Entry CCN1CCC(=O)c2cnc(N3CCN(c4nc(N)c5cc(OC)c(OC)cc5n4)CC3)nc21 , tested on Mouse, has a reported Acute Toxicity, number of dead animals/number of tested animals of 0/4
